Reference for the values: PubChem BioAssay (NCI)

Test system: DU-145 prostate
measurement description: NCI-60 one-dose screen, 48 h (100 = growth as untreated, 0 = no growth, -100 = all killed)
cond: 10 µM unless noted
This is part of a sample that, as a whole, favours compounds with a hit. Of some 83,000 tested, about 20% had one in any assay.
growth strictly under 70% means yes (1); at 70% or over means no (0).

• Cc1ccc(N(CC(=O)Nc2ccc(S(=O)(=O)N3CCC(N4CCCC4)CC3)cc2)S(=O)(=O)c2ccc(Cl)cc2)cc1 = yes (1)
• CN(C)c1ccc(N=C2C=CC(=O)C=C2)cc1 = no (0)
• O=C(NC1=CC(=O)c2ccccc2C1=O)c1ccccc1 = yes (1)
• COc1ccc2c(c1)c(-c1nc(-c3cn(C)c4ncccc34)cs1)cn2CCCN1CCCCC1 = yes (1)
• N#C/C(=C\c1ccc(-c2ccc(Cl)cc2)o1)c1nc(-c2ccco2)cs1 = no (0)
• COC(=O)[C@]12CC[C@@H](C)[C@H](C)[C@@H]1C1=CC[C@@H]3[C@@]4(C)C[C@@H](O)OC[C@](C)(C=O)C4C(=O)C[C@@]3(C)[C@]1(C)CC2 (stereo partly drawn) = yes (1)
• COc1ccc(C(=O)c2cc(OC)c(OC)c(OC)c2)cc1/C=C/C(=O)c1cc(OC)c(OC)c(OC)c1 = no (0)
